# Test system: CAKI-1 renal
# Test Description: NCI tumour cell line growth inhibition, 48 h
Measured TGI of individual entries

Compound	TGI
OCc1ccc(-c2csc(-c3ccc(CO)o3)c2)o1	> 100 µM

For reference, reported TGI for COC(=O)CN(CC(=O)NCCCBr)C1CCCCC1N(CC(=O)OC)CC(=O)OC (stereo unspecified) stands at > 100 µM

For record CCC(=O)Nc1cccc(N=Cc2ccc(OC(=O)/C=C\c3ccccc3)cc2)c1 the listed TGI is > 75 µM

* * *

Listing: TGI of selected compounds
# Test system: SF-295 CNS
# Test Description: NCI tumour cell line growth inhibition, 48 h

Reference set (3 entries):
O=C(O)CCCCn1ccc(=O)[nH]c1=O > 100 µM
O=C(O)CN(c1ccccc1)S(=O)(=O)c1cccc([N+](=O)[O-])c1 > 100 µM
C[C@H](c1ccc(F)cc1CCCC(=O)O)N(c1cc(F)ccc1F)S(=O)(=O)c1ccc(Cl)cc1 > 75.9 µM

Value of TGI reported for the compound CCOC(=O)/C=C(/C(=O)OCC)n1cc(C)c(=O)n(Cc2cnnn2COCCOC(C)=O)c1=O is > 100 µM
